Kindly state IC50 for each of the entries shown.
Biological target: Protein kinase C (PKC)
Experiment: Inhibition of purified rat brain protein kinase C (RB-PKC)
Your answer should be a plain number; it is taken to be in µM.

// query Reported IC50 for CN1CCC(n2cc(C3=C(c4c[nH]c5ccccc45)C(=O)NC3=O)c3ccccc32)CC1 : what is it?
// result 0.2

// query Now consider CC(C)N1CCC(n2cc(C3=C(c4cn(C)c5ccccc45)C(=O)NC3=O)c3ccccc32)CC1 .
// result 0.25

// query Now consider CN1CCC(n2cc(C3=C(c4cn(C)c5ccccc45)C(=O)NC3=O)c3ccccc32)CC1 .
// result 0.2

// query Now consider Cn1cc(C2=C(c3cn(C4CCN(CC5CC5)CC4)c4ccccc34)C(=O)NC2=O)c2ccccc21 .
// result 0.3

// query Now consider Cn1cc(C2=C(c3cn(C4CCN(Cc5ccccn5)CC4)c4ccccc34)C(=O)NC2=O)c2ccccc21 .
// result 0.7

// query Now consider Cn1cc(C2=C(c3cn(C4CCN(Cc5ccccc5)CC4)c4ccccc34)C(=O)NC2=O)c2ccccc21 .
// result 4

// query Now consider Cn1cc(C2=C(c3cn(C4CCN(Cc5ccccc5)C4)c4ccccc34)C(=O)NC2=O)c2ccccc21 (configuration not stated) .
// result 2.8

###

Molecular target: Protein kinase C delta type (Homo sapiens)
Sequence (Q05655 whole entry): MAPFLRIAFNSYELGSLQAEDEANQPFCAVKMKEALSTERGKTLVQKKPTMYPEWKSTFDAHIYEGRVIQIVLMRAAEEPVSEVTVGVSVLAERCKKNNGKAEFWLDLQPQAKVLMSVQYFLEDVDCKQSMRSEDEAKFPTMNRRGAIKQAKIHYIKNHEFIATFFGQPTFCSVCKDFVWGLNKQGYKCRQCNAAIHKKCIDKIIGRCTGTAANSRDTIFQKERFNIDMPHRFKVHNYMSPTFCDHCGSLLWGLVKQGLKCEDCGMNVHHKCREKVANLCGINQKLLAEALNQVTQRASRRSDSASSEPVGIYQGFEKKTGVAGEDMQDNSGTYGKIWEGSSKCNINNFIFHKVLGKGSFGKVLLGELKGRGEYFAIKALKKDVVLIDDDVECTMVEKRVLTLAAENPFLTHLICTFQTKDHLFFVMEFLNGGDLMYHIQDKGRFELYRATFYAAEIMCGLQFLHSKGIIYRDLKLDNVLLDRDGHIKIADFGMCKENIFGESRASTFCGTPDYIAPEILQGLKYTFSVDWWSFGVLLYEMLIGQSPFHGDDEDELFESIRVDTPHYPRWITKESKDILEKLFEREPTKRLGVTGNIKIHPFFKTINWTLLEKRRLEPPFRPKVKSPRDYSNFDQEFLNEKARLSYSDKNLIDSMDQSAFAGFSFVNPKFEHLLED
Assay: Inhibition of Protein kinase C delta
Kindly state IC50 for each of the entries shown.
Your answer should be a plain number; it is taken to be in µM.

// query Reported IC50 for Cn1cc(C2=C(c3cn(C4CCN(Cc5ccccc5)C4)c4ccccc34)C(=O)NC2=O)c2ccccc21 (configuration not stated) : what is it?
// result 4.2

// query Now consider Cn1cc(C2=C(c3cn(C4CCN(C(=O)OC(C)(C)C)CC4)c4ccccc34)C(=O)NC2=O)c2ccccc21 .
// result 7

###

Target: Protein kinase C beta type (Homo sapiens, UniProt P05771)
Sequence (P05771 whole entry): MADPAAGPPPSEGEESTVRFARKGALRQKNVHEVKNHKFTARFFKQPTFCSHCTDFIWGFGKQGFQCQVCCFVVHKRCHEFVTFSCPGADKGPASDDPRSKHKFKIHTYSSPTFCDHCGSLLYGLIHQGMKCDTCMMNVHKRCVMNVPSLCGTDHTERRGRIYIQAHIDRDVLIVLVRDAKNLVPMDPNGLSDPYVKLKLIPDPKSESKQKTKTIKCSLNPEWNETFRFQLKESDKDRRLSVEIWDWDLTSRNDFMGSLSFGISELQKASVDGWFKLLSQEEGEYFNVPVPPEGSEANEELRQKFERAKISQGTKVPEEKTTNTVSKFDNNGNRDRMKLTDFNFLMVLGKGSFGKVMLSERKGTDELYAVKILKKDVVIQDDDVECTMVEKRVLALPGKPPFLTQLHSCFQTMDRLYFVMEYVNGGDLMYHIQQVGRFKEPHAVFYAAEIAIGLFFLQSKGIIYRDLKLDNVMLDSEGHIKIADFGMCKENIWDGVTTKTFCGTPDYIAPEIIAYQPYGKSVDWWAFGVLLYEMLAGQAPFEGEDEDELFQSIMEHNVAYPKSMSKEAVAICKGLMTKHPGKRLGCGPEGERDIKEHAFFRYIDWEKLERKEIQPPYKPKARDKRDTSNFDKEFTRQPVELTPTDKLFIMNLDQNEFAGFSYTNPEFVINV
Experiment: Inhibition of Protein kinase C beta 1
Kindly state IC50 for each of the entries shown.
Your answer should be a plain number; it is taken to be in nM.

// query Reported IC50 for Cn1cc(C2=C(c3cn(C4CCN(Cc5ccccc5)C4)c4ccccc34)C(=O)NC2=O)c2ccccc21 (configuration not stated) : what is it?
// result 22

// query Now consider Cn1cc(C2=C(c3cn(C4CCN(C(=O)OC(C)(C)C)CC4)c4ccccc34)C(=O)NC2=O)c2ccccc21 .
// result 200
